Data origin, for the record: patent US8471005B2

subject_of_test: JAK2 (Homo sapiens, UniProt O60674)
Construct: host or cells: baculovirus expression system
Sequence (O60674 whole entry): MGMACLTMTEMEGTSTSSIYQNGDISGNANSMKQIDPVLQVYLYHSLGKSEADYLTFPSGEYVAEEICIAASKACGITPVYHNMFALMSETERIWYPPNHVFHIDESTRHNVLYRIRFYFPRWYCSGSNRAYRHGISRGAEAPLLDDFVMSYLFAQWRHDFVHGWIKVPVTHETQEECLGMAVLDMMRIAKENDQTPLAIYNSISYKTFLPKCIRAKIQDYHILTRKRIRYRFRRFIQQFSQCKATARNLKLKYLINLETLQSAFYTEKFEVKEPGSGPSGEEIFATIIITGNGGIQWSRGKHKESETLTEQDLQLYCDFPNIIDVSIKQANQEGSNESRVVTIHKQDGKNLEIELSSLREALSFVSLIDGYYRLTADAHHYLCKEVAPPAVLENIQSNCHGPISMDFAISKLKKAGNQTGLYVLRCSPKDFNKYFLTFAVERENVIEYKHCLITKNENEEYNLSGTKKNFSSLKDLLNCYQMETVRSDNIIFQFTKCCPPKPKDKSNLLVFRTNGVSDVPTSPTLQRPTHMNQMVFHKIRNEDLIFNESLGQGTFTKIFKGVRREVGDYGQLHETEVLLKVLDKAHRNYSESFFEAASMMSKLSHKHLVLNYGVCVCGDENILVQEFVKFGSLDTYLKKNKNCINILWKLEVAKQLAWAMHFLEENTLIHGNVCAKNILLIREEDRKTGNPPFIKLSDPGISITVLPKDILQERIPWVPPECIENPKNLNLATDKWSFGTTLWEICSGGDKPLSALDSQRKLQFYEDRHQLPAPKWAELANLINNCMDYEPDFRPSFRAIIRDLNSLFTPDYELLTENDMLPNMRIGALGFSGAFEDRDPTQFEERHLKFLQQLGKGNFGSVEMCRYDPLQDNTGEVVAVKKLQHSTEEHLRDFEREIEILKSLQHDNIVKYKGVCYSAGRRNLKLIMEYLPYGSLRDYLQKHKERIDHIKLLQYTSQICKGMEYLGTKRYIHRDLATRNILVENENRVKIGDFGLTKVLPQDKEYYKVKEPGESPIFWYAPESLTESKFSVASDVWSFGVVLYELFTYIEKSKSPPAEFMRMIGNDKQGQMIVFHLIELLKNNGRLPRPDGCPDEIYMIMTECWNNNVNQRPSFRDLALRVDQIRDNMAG
test_protocol: Recombinant Human JAK2 Kinase Assay (TRF)
Type: biochemical
test_settings: JAK2 kinase inhibition, 0.2 μM ATP; read-out: JAK2 Potency
pIC50: −log10 of the molar value.
Below, each of the molecules is paired with its reported pIC50 value.

>>> experimental_value("CN1CCN(c2ccc(Nc3ncc4ccc(-c5cccc(N6CCNCC6)c5)n4n3)cc2)CC1")
"> 7.00"

Sample `Cn1cnc2ccc(Nc3ncc4ccc(-c5cccc(S(=O)(=O)CC6CC6)c5)n4n3)cc21` — what was its pIC50?
> 7.00

Sample `COc1ccc(-c2ccc3cnc(Nc4ccc(OCCN5CCOCC5)cc4)nn23)cn1` — what was its pIC50?
> 7.00

Sample `CC(C)(C)NS(=O)(=O)c1cccc(-c2ccc3cnc(Nc4cccc(C(=O)N5CCOCC5)c4)nn23)c1` — what was its pIC50?
> 7.00

Sample `COC[C@H](O)CN1CCN(Cc2ccc(Nc3ncc4ccc(-c5ccccc5OC)n4n3)c(OC)c2)CC1` — what was its pIC50?
6.00 to 7.00

Sample `COc1cc2c(cc1Nc1ncc3ccc(-c4ccccc4N(C)S(C)(=O)=O)n3n1)CCC1(CCN(C)CC1)O2` — what was its pIC50?
5.00 to 6.00

Sample CCN1CCOC(c2ccc(Nc3ncc4ccc(-c5ccccc5N(C)S(C)(=O)=O)n4n3)cc2)C1 (centres unmarked) — what was its pIC50?
> 7.00
